- method: base strength (pka) of the terminal amine
- Assay type: physicochemical
- condition.parameters: Table 5, terminal amine
The following molecules are listed with their measured pKa values.

Reference set, count: 2
- molecule: "c1ccc2c(OCCCCN3CCOCC3)cccc2c1 [α 4 0]"
  pKa: 7.41
- molecule: "NCCCCOc1cccc2ccccc12 [NH2]"
  pKa: 10.6

The molecule c1ccc2c(OCCCCN3CCCC3)cccc2c1 [pyrrolidine, N-4-(naphth-1-yloxy)butylpyrrolidine] showed pKa equal to 10.3

For c1ccc2c(OCCCCN3CCCCC3)cccc2c1 [α 4 CH2] the molecule record lists pKa as 10.1

Record summary for c1ccc2c(OCCCCn3ccnc3)cccc2c1 [imidazole] : reported pKa = 7.33
